Experiment: soluble on expression in E. coli; label from the status in PepcDB or PDB records

{"columns": ["sequenceEntry", "soluble on expression in E. coli"],
 "data": [
  ["MINITSMRDSFGDWAEKFLKSKEADGVSVSQLNSYKNYCRNHLSPLYMKSLSEILPADIQSIINETKLAKNTLKAIRNTASQIFRLAIENRAIDFNPADYVRIPKIAPEFHRDALEHHHHHH", "soluble"],
  ["MASEQEKTADFGFRTVAKDEKEVMVAEVFHSVAAKYDLMNDLMSFGIHRIWKRFTIECSGVRRNQRVLDLAGGTGDLTAKFSRMVGEGGEVILADINASMLKVGREKLRNKGIIDNINYVQANAEALPFPDDFFDCITISFGLRNVTDKNKALRSMYRVLKPGGRLLVLEFSKPVIKQLSTIYDAYSFHILPRIGEAVASDAGSYRYLAESIRMHPDQETLKGMMSDAGFDSVNYFNLTGGIVALHRGFKFLEHHHHHH", "not soluble"],
  ["MRGSHHHHHHTDPALRATQKNFVELRNVTKRFGSNTVIDNINLTIPQGQMVTLLGPSGCGKTTILRLVAGLEKPSEGQIFIDGEDVTHRSIQQRDICMVFQSYALFPHMSLGENVGYGLKMLGVPRAELKARVKEALAMVDLEGFEDRFVDQISGGQQQRVALARALILKPKVLLFDEPLSNLDANLRRSMRDKIRELQKQFDITSLYVTHDQSEAFAVSDTVLVMNKGHIMQIGSPQDLYRQPASRFMASFMGDANLFPATFSDGYVDIYGYHLPRPLHFGTQGEGMVGVRPEAITLSDRGEESQRCVIRHVAYMGPQYEVTVEWHGQEILLQVNATRLQPDVGEQYYLEIHPYGMFVLADAAGLCGR", "soluble"],
  ["MSLAEIRIRPLEVSALSRRLCIWADIVDASGVLLNSAPVWFDVSAMGEVWTPSTDAEKGTAVDVHPLKREFIDVAAAGIEPASRREIEGKEFSRRVESGQPITKDVLRAIPEIKNGDIVFVEVRVGTVFLRSRAEAMHDAYIGDRIKLKSVSSGETMLGVVLSAGRVWIGSEGHHHHHH", "not soluble"]
]}

* * *

Assay: soluble on expression in E. coli; label from the status in PepcDB or PDB records
measuredParameter: soluble on expression in E. coli

Answered cases to consult:
{"columns": ["sequenceEntry", "observedValue"],
 "data": [
  ["MGHHHHHHSHMALAARLLPQFLHSRSLPCGAVRLRTPAVAEVRLPSATLCYFCRCRLGLGAALFPRSARALAASALPAQGSRWPVLSSPGLPAAFASFPACPQRSYSTEEKPQQHQKTKMIVLGFSNPINWVRTRIKAFLIWAYFDKEFSITEFSEGAKQAFAHVSKLLSQCKFDLLEELVAKEVLHALKEKVTSLPDNHKNALAANIDEIVFTSTGGISIYYDEKGRKFVNILMCFWYLTSANIPSETLRGASVFQVKLGNQNVETKQLLSASYEFQREFTQGVKPDWTIARIEHSKLLE", "not soluble"],
  ["TIEIYKNKIPDGKNAGKDAILIKDNNLIKQLEDAAKKNGAESNQKQGGESNVQKEQIIGYTTTGNVREDGNHIFRVDKINDEQYDRKIIVGVTVETLEQSSTLQSEEAIVLAAPGKYKSTDKKKVTITQGPNIIGIHANEKENAETQKFVDW", "soluble"],
  ["MGHHHHHHSHMPTTSRPALDVKGGTSPAKEDANQEMSSVAYSNLAVKDRKAVAILHYPGVASNGTKASGAPTSSSGSPIGSPTTTPPTKPPSFNLHPAPHLLASMQLQKLNSQYQGMAAATPGQPGEAGPLQNWDFGAQAGGAESLSPSAGAQSPAIIDSDPVDEEVLMSLVVELGLDRANELPELWLGQNEFDFTADFPSSC", "not soluble"],
  ["MSLTRICIVGAGAVGGYLGARLALAGEAVNVLARGATLQALQTAGLRLTEDGATHTLPVRATHDAVALGEQDVVIVAVKAPALESVAAAIAPLIGPGTCVVVAMNGVPWWFFDRPGPLQGQRLQAVDPHGRIAQAIPTRHVLGCVVHLTSATASPGHIRHGNGRRLILGEPAGGASPRLASIAALFGRAGLQAECSEAIQRDIWFKLWGNMTMNPVSVLTGATCDRILDDPLVSAFCLAVMAEAKAIGARIGCPIEQSGEARSAVTRQLGAFKTSMLQDAEAGRGPLEIDALVASVREIGRHVGVPTPQIDTLLGLVRLHAQTRGLYEGHHHHHH", "soluble"],
  ["MSLLEYLPPGVDTDRFRPDPAARAELRKRYRLGERPTVVCLSRLVPRKGQDTLVTALPSIRRRVDGAALVIVGGGPYLETLRKLAHDCGVADHVTFTGGVATDELPAHHALADVFAMPCRTRGAGMDVEGLGIVFLEASAAGVPVIAGNSGGAPETVQHNKTGLVVDGRSVDRVADAVAELLIDRDRAVAMGAAGREWVTAQWRWDTLAAKLAEGHHHHHH", "not soluble"]
]}

Any idea what soluble on expression in E. coli was measured for `MSLEEFVKTGKTVCILINKQGRIYYSNIGKDVAEKCLEDIHIFDHLPADGTVSYNVGYYTVTADTVDLDEAHYYLILIQPQGNLYKYAYRDSFTGLYNRNYWEQLISGKMHRPIPKRFTLIVIDVDNLKSLNDNRGHLAGDKAIRIVGKSIRESIRKQDIAVRYGGDEFFILLANTKKAIVEKVINRVKENIRKRGKEENIHIEISVGMACSNSINKLEKVITMADYNMYKEKREKKVQVKHIGEGHHHHHH` ?
not soluble
